B1: HDV Ribozyme (parent)
chain: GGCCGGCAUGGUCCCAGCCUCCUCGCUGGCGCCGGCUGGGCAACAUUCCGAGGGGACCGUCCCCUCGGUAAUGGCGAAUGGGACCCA

variants of: B1; assay: self-cleavage, relative activity (ratio to wild type); higher = more cleavage; co-transcriptional
Outcome label depends on self-cleavage relative to 0.1: at/above gives criterion met, below gives criterion not met.

Variant String | Discrete Label
G5U A45U | criterion met
C58A U65A | criterion met
U12C A71G | criterion met
C24U U60A | criterion met
U12C A42C | criterion not met
C18A G67C | criterion met
G5U G28C | criterion not met
G53C C86U | criterion met
G11A A78C | criterion met
G6A C84G | criterion met
G6U G34C | criterion not met
U23C G80C | criterion met
U47C G68C | criterion met
C64U A77G | criterion met
G53C C57U | criterion met
U20G G31C | criterion not met
C19G C48A | criterion met
C30U G59A | criterion met
G39C G50A | criterion met
G55A G76A | criterion met
G5C C32G | criterion not met
G52U A87C | criterion met
C30U G35C | criterion met
A43C G67U | criterion met
U27C C61G | criterion met
C48U C49U | criterion met
C24U C32G | criterion not met
U37A G40A | criterion met
C44G C66U | criterion met
C63U A78C | criterion met
C21U C64U | criterion met
G5C U60C | criterion not met
C63G A71U | criterion met
A56C G76C | criterion met
C22U A51C | criterion met
U37G A56G | criterion not met
G6A C66U | criterion met
U27G G39C | criterion not met
C30G A56C | criterion not met
C44A C75A | criterion met
G54C C63A | criterion met
G28A G68C | criterion not met
C3G G53U | criterion met
C66G C86G | criterion met
A56G G74U | criterion met
A56G A71G | criterion met
C44G C86U | criterion met
A8U U37G | criterion met
C24A G53U | criterion met
C13G A71G | criterion not met
U72C G80A | criterion met
C19A C57G | criterion met
G28C G81U | criterion not met
G67U G80U | criterion met
